pIC50 for assorted compounds
target: PI3Kγ (p110γ) Recombinant Human Protein (Homo sapiens (Human)); assay: PI3K-γ scintillation proximity assay; settings: 20 μM PIP2, 2 μM ATP, 13 nM PI3Kγ, 120 min, room temperature
Sequence (P48736 whole entry): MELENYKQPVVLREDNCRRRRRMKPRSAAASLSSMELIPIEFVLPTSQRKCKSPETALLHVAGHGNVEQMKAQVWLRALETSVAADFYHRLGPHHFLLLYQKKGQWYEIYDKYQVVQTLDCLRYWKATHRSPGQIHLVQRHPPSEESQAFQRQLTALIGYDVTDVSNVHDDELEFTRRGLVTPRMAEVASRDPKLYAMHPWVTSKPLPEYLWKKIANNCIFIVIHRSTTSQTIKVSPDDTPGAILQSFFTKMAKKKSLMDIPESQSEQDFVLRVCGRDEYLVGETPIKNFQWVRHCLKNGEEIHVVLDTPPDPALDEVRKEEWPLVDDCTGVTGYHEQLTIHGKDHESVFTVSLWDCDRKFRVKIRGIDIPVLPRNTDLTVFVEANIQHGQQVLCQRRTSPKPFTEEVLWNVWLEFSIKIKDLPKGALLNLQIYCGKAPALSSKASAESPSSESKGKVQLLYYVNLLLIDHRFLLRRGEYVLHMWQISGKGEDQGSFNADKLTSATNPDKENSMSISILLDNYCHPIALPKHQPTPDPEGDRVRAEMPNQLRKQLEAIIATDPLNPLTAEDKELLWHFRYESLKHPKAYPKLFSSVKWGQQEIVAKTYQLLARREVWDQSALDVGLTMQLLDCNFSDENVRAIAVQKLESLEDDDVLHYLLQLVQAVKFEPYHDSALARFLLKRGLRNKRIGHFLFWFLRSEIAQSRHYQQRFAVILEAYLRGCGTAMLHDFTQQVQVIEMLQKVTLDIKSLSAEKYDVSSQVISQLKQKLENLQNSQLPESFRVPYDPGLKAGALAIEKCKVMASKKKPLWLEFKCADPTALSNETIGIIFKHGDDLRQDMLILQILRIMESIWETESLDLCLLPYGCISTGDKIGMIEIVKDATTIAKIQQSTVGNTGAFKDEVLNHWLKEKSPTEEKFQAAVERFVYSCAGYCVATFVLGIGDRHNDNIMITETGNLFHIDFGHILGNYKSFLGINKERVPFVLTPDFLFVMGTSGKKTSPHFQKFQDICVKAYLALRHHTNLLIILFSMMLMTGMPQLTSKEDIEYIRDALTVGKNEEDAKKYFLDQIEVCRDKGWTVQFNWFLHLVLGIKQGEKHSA
pIC50: −log10 of the molar value. Counter-ions that a name gives are not always drawn.

[
  {
    "compound": "Cc1ccc(C(C)(O)C(F)(F)C(F)(F)F)cc1-c1cnc2c(N)nc(C(F)(F)F)cn12 (single isomer, unassigned) [Example 59]",
    "pIC50": "> 7.00"
  },
  {
    "compound": "Cc1ccc(C(C)(O)C(F)F)cc1-c1cnc2c(N)nc(-n3cncn3)cn12 (stereo not shown)",
    "pIC50": "> 7.00"
  },
  {
    "compound": "Cc1ccc(C(C)(O)C(F)F)cc1-c1cnc2c(N)nc(C3CC3CO)cn12 (single isomer, unassigned) [Example 79]",
    "pIC50": "> 7.00"
  },
  {
    "compound": "Cc1ccc(C(C)(O)C(F)(F)F)cc1-c1cnc2c(N)nc(C(F)(F)F)cn12 (single isomer, unassigned) [Example 5]",
    "pIC50": "> 7.00"
  },
  {
    "compound": "Cc1ccc(C(O)(C(F)(F)F)C(F)(F)F)cc1-c1cnc2c(N)nc(-c3ccnn3C)cn12",
    "pIC50": "> 7.00"
  }
]

Report measured pIC50; entry is [2H]C([2H])([2H])c1ccc(C(C)(O)C(F)(F)F)cc1-c1cnc2c(N)nc(C(=O)NCC(C)(C)O)cn12 (stereo not shown)
> 7.00

Report measured pIC50; entry is Cc1ccc(C(C)(O)C(F)F)cc1-c1cnc2c(N)nc(-c3c(C)n[nH]c3C)cn12 (stereo not shown)
> 7.00

Report measured pIC50; entry is Cc1ccc(C(C)(O)C(F)(F)F)cc1-c1cnc2c(N)nc(C3CC(CO)C3)cn12 (single isomer, unassigned) [Example 207, trifluoroacetate]
> 7.00

Report measured pIC50; entry is [2H]C([2H])([2H])c1ccc(C(O)(C(C)O)C(F)(F)F)cc1-c1cnc2c(N)nc(C(F)(F)F)cn12 (single isomer, unassigned) [Example 233, trifluoroacetate salt]
> 7.00

Report measured pIC50; entry is Cc1cc(-c2cn3c(-c4cc(C(C)(O)C(F)F)ccc4C)cnc3c(N)n2)on1 (stereo not shown) [Example 48, trifluoroacetate]
> 7.00

Report measured pIC50; entry is Cc1ccc(C(C)(O)C(F)F)cc1-c1cnc2c(N)nc(-c3ccnc(CO)c3)cn12 (single isomer, unassigned) [Example 45]
> 7.00

Report measured pIC50; entry is Cc1ccc(C(C)(O)C(F)F)cc1-c1cnc2c(N)nc(-c3cnn(C)c3)cn12 (stereo not shown)
> 7.00

Report measured pIC50; entry is Cc1ccc(C(O)(C(N)=O)C(F)(F)F)cc1-c1cnc2c(N)nc(C(=O)NC34CC(F)(C3)C4)cn12 (stereo not shown) [Example 288, trifluoroacetate salt]
> 7.00
